# assayed_target: Gag-Pol polyprotein (Human immunodeficiency virus type 1 group M subtype B (isolate HXB2), UniProt P04585)
# test_protocol: HIV-1 RT RNase H inhibitor potency, dose response, biochemical, probe assessment (AID 652)
# particulars: pH 8; 23 °C
pIC50: −log10 of the molar value.

[
  {
    "molecule": "COc1ccccc1CNC(=O)c1cc2c(=O)n(C)c3ccccc3c2n1C",
    "pIC50": 4.61
  },
  {
    "molecule": "CCn1cc(C(=O)NCc2ccco2)c(=O)c2cc(S(=O)(=O)N3CCc4ccccc4C3)ccc21",
    "pIC50": 5.03
  },
  {
    "molecule": "COc1ccc(N2CCN(Cc3cc(=O)oc4cc(C)c(Cl)c(C)c34)CC2)cc1",
    "pIC50": 5.41
  },
  {
    "molecule": "c1cncc(-c2nn3c(Cn4cnc5ccccc54)nnc3s2)c1",
    "pIC50": 6.21
  },
  {
    "molecule": "COc1ccc(Br)cc1C1CC(=O)N2CN(C)CSC2=C1C#N (stereo not given)",
    "pIC50": 5.14
  },
  {
    "molecule": "Cc1cc(NC(=O)CSc2ccc(-c3nc4cc(C)c(C)cc4[nH]3)cn2)no1",
    "pIC50": 4.78
  },
  {
    "molecule": "COc1ccc2nc(O)c(CN(C3CCCCC3)C(c3nnnn3Cc3ccco3)C(C)C)cc2c1 (stereo not given)",
    "pIC50": 5.99
  },
  {
    "molecule": "CCCc1nc2ccccc2c(=O)n1N=Cc1ccc(O)c(O)c1",
    "pIC50": 6.12
  },
  {
    "molecule": "Cc1nn(CCc2nc(-c3ccco3)cs2)c2nc(O)cc(C(F)(F)F)c12",
    "pIC50": 5.71
  },
  {
    "molecule": "CCOC(=O)c1c(N)sn(-c2ccccc2C)c1=S",
    "pIC50": 5.64
  }
]

---

# assayed_target: Gag-Pol polyprotein (Human immunodeficiency virus type 1 group M subtype B (isolate HXB2), UniProt P04585)
# test_protocol: HIV-1 RT RNase H inhibitor potency, dose response, biochemical, probe assessment (AID 652)
# particulars: pH 8; 23 °C
Parameter IC50: see the listing below.

[
  {
    "compound": "C=CCn1c(SCC(=O)NC(=O)NCc2ccco2)nc2sc(C)c(C)c2c1=O",
    "IC50 / µM": 19
  },
  {
    "compound": "O=C(CSc1nnc[nH]1)c1ccccc1",
    "IC50 / µM": 5.52
  },
  {
    "compound": "COC(=O)N(c1ccc(OC)cc1)P1(=S)OCCC(C)O1 (stereo not given) [MLS000043492]",
    "IC50 / µM": 1.02
  },
  {
    "compound": "COCCn1c(-c2ccc(-c3ccccc3Cl)o2)nc2c1c(=O)[nH]c(=O)n2CC(C)C",
    "IC50 / µM": 4.55
  },
  {
    "compound": "Cc1ccccc1OCc1nc(-c2ccc(NC(=O)c3ccc4c(c3)OCO4)cc2)no1 [MLS000047257]",
    "IC50 / µM": 4.58
  }
]

---

# assayed_target: Gag-Pol polyprotein (Human immunodeficiency virus type 1 group M subtype B (isolate HXB2), UniProt P04585)
# test_protocol: HIV-1 RT RNase H inhibitor potency, dose response, biochemical, probe assessment (AID 652)
# particulars: pH 8; 23 °C
property: IC50 (µM)

[
  {
    "molecule": "CC1CCN(S(=O)(=O)c2ccc(NC(=O)Cn3nnc(-c4ccccc4)n3)cc2)CC1 [MLS000032813]",
    "property": "IC50",
    "prefix_operator": "=",
    "measured": 22
  },
  {
    "molecule": "Cc1nc(C)c(C(=O)Nc2nc3c(C)cccc3s2)o1",
    "property": "IC50",
    "prefix_operator": "=",
    "measured": 1.49
  },
  {
    "molecule": "CCC1(C)Cc2c(sc3c2c(=O)n(C)c2nnc(SCc4ccc5c(c4)OCO5)n32)CO1 (centres undefined) [MLS000030507]",
    "property": "IC50",
    "prefix_operator": "=",
    "measured": 23
  },
  {
    "molecule": "Cc1cc(C)c2c(=O)n(CC(=O)NCCCN3CCOCC3)sc2n1",
    "property": "IC50",
    "prefix_operator": "=",
    "measured": 9.4
  },
  {
    "molecule": "Cc1ccc(-n2c(N)c(C(=O)N3CCN(C)CC3)sc2=S)cc1",
    "property": "IC50",
    "prefix_operator": ">",
    "measured": 50
  },
  {
    "molecule": "COC(=O)c1cccc(N2C(=O)C(Cl)=C(N3CCOCC3)C2=O)c1 [SMR000014938]",
    "property": "IC50",
    "prefix_operator": ">",
    "measured": 50
  },
  {
    "molecule": "Cc1nn2c(-c3cccc(NC(=O)CSc4nc5ccccc5o4)c3)nnc2c2ccccc12",
    "property": "IC50",
    "prefix_operator": "=",
    "measured": 3.71
  },
  {
    "molecule": "O=C1c2sc3nc4ccccc4n3c2C(=O)N1c1ccccc1Cl [MLS000038506]",
    "property": "IC50",
    "prefix_operator": "=",
    "measured": 1.13
  },
  {
    "molecule": "COc1cc(C(=O)Nc2oc(-c3ccccc3)c(-c3ccccc3)c2C#N)cc(OC)c1OC [MLS000051579]",
    "property": "IC50",
    "prefix_operator": "=",
    "measured": 6.05
  }
]

---

# assayed_target: Gag-Pol polyprotein (Human immunodeficiency virus type 1 group M subtype B (isolate HXB2), UniProt P04585)
# test_protocol: HIV-1 RT RNase H inhibitor potency, dose response, biochemical, probe assessment (AID 652)
# particulars: pH 8; 23 °C

[
  {
    "molecule": "CCc1ccc(NC(=O)CSc2nc3cc(C(=O)OC)ccc3c(=O)n2Cc2ccco2)cc1",
    "measurement_unit": "µM",
    "IC50": 2.32
  },
  {
    "molecule": "Cc1cc(NC(=O)CSc2nc(C3CC3)nc3sc4c(c23)CCC(C)C4)no1 (centres undefined)",
    "measurement_unit": "µM",
    "IC50": 5.41
  },
  {
    "molecule": "COc1ccc(C2C(C(C)=O)=C(C)N=c3sc(=Cc4ccc5c(c4)OCO5)c(=O)n32)cc1 (centres undefined) [SMR000020852]",
    "measurement_unit": "µM",
    "IC50": 7.02
  },
  {
    "molecule": "COC(=O)c1ccccc1S(=O)(=O)N(Cc1cc2cc3c(cc2[nH]c1=O)OCO3)C1CCCCC1 [SMR000002998]",
    "measurement_unit": "µM",
    "IC50": 21.1
  },
  {
    "molecule": "CN(C)c1ccc(NC=C2C(=O)NC(=O)N(CCC3=CCCCC3)C2=O)cc1",
    "measurement_unit": "µM",
    "IC50": 3.8
  },
  {
    "molecule": "Cc1ccc(-n2sc3ccccc3c2=O)cc1S(=O)(=O)N1CCCCC1",
    "measurement_unit": "µM",
    "IC50": 0.164
  },
  {
    "molecule": "N#Cc1c(NC(=O)CN2CCN(S(=O)(=O)c3ccc4c(c3)OCCO4)CC2)sc2c1CCC2 [MLS000053165]",
    "measurement_unit": "µM",
    "IC50": 3.48
  },
  {
    "molecule": "CCn1c2ccccc2c2nc3cc(S(=O)(=O)N4CCOCC4)ccc3nc21",
    "measurement_unit": "µM",
    "IC50": 1.02
  },
  {
    "molecule": "COc1ccc2ccccc2c1C1CC(=O)N2CN(C3CCCCC3)CSC2=C1C#N (centres undefined)",
    "measurement_unit": "µM",
    "IC50": 3.62
  }
]

---

# assayed_target: Gag-Pol polyprotein (Human immunodeficiency virus type 1 group M subtype B (isolate HXB2))
# test_protocol: HIV-1 RT RNase H inhibitor potency, dose response, biochemical, probe assessment (AID 652)
# particulars: pH 8; 23 °C
pIC50: −log10 of the molar value.
Parameter pIC50: see the listing below.
property: pIC50

[
  {
    "compound": "O=c1c(=Cc2cccn2-c2ccccc2)sc2nc3ccccc3n12",
    "prefix_operator": "=",
    "measured": 5.55
  },
  {
    "compound": "CC(C)OC(=O)CSc1nnc(-c2ccc(C(C)(C)C)cc2)n1N",
    "prefix_operator": "<",
    "measured": 4.30
  },
  {
    "compound": "Cc1cc(C)c2oc(-c3ccc(Cl)c(NC(=O)c4ccc(C#N)cc4F)c3)nc2c1",
    "prefix_operator": "=",
    "measured": 5.56
  },
  {
    "compound": "O=C(O)c1ccc2c(c1)NC(=O)C(N1CCCC1)S2 (stereo not given)",
    "prefix_operator": "=",
    "measured": 5.43
  },
  {
    "compound": "CC(=O)c1cccc(NC(=O)c2cc(-c3ccc(C)cc3)on2)c1",
    "prefix_operator": "=",
    "measured": 4.88
  },
  {
    "compound": "COc1cccc(OC)c1-c1nn2c(-c3cc(-c4ccccc4)n[nH]3)nnc2s1",
    "prefix_operator": "=",
    "measured": 5.42
  },
  {
    "compound": "NC(=O)c1cc(-c2ccccc2)sc1NC(=O)Cc1ccc(S(=O)(=O)N2CCOCC2)s1",
    "prefix_operator": "=",
    "measured": 5.13
  },
  {
    "compound": "N#Cc1cc(-c2ccccc2)nn1-c1ccccc1",
    "prefix_operator": "=",
    "measured": 6.06
  },
  {
    "compound": "CCOC(=O)CSc1nc2cc(C(=O)NCc3ccco3)ccc2c(=O)n1-c1ccc(F)cc1",
    "prefix_operator": "=",
    "measured": 4.88
  },
  {
    "compound": "c1ccc2c(c1)ncn2Cc1nnc2sc(-c3ccc4c(c3)OCO4)nn12",
    "prefix_operator": "=",
    "measured": 5.91
  }
]
